Molecular target: β1-receptors (Homo sapiens, UniProt P08588)
Construct: Crude membrane preparations were made from the homogenates; from tissue; host or cells: human post-mortem prefrontal cortex (grey matter), crude membranes
Sequence (P08588 whole entry): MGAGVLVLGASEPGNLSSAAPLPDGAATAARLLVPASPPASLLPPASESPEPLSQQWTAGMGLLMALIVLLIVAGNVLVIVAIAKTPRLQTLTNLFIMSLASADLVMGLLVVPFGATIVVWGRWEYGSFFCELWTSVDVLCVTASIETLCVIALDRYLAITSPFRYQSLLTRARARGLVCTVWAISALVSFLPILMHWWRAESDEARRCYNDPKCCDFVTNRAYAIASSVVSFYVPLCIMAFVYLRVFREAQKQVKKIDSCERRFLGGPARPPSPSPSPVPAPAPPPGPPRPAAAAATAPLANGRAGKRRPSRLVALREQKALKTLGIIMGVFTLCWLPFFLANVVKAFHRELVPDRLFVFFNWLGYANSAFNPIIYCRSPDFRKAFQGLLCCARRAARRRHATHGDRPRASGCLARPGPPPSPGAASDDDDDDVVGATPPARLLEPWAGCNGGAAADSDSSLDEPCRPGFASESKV
Test: [^3 H]DHA saturation binding in prefrontal cortical homogenates, β1-receptors
Conditions: control, n=5
measure_name: Kd (nM)
Kindly answer with a numeric value in nM, unit omitted.

Query: Would you mind telling me what Kd value was observed for CCCc1ccccc1OCC(O)CNC(C)C (stereo not shown) [[^3 H]DHA, dihydroalprenolol] ?
Reply: 2.2

----------
Biological target: β2-receptors (Homo sapiens, UniProt P07550)
Sequence (P07550 whole entry, looked up): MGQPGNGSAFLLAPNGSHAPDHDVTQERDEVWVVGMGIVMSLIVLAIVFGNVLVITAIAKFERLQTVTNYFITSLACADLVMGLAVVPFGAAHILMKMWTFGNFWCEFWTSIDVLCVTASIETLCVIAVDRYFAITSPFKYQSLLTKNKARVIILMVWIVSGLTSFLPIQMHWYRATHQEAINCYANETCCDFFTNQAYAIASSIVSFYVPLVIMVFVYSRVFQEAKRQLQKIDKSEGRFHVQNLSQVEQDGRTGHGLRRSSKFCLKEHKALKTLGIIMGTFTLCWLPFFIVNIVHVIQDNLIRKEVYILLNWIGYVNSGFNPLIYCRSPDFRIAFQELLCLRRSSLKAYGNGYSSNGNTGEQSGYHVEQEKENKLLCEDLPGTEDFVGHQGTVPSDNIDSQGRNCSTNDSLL
measure_name: Kd (nM)
Answer format: numeric, nM implied, no suffix.

Query: Item under review: CCCc1ccccc1OCC(O)CNC(C)C (stereo not shown) [[^3 H]DHA, dihydroalprenolol] . Reported Kd?
Reply: 1.1

----------
Molecular target: β-adrenergic receptor
Experiment: [^3 H]DHA saturation binding in prefrontal cortical homogenates from suicides and controls (Scatchard analysis)
Design: species or system human
Settings: suicide, mean of 10; SEM 0.1; read-out: Kd, mean
measure_name: Kd (nM)
Unit nM implied. Number only.

Query: // returns reported Kd for input CCCc1ccccc1OCC(O)CNC(C)C (stereo not shown) [[^3 H]DHA, dihydroalprenolol]
Reply: 1
